Method Summary: Single dose study: plasma pharmacokinetics of eplerenone, open lactone ring form, spironolactone
Conditions Used: male, human, plasma, po, 10 mg
Experimental Endpoint: concentration at 3 h (ng/mL)
Answer in ng/mL, number only, no unit symbol.

In: Entry COC(=O)C1CC2=CC(=O)CCC2(C)C23OC2CC2(C)C(CC[C@@]24CCC(=O)O4)C13 (stereo partly shown) [eplerenone] : reported concentration at 3 h = ?
Out: 125

---

Method Summary: Effect of food study: plasma pharmacokinetics fasted vs high-fat breakfast
Type: in vivo, humans
Conditions Used: male, human, plasma, oral, 100 mg, 100 mg eplerenone capsule; Fasted Conditions; […] after dosing
Description: An open-label randomized, cross-over study was employed to evaluate the pharmacokinetic profiles of eplerenone under fasted and fed conditions, and the safety and tolerability of eplerenone. Safety was assessed based on adverse events, vital signs and clinical laboratory tests. Twelve healthy male subjects were randomized to receive a single 100 mg dose of eplerenone on days 1 and 8 under (i) fasted conditions, or (ii) immediately following a high-fat breakfast. […]
Experimental Endpoint: concentration at 12 h (ng/mL)
Answer in ng/mL, number only, no unit symbol.

In: Entry COC(=O)C1CC2=CC(=O)CCC2(C)C23OC2CC2(C)C(CC[C@@]24CCC(=O)O4)C13 (stereo partly shown) [eplerenone] : reported concentration at 12 h = ?
Out: 151
